Quick list: Percent Effect per entry.
Target: Proteasome subunit beta (Trypanosoma cruzi) (UniProt O96673)
Sequence (whole entry): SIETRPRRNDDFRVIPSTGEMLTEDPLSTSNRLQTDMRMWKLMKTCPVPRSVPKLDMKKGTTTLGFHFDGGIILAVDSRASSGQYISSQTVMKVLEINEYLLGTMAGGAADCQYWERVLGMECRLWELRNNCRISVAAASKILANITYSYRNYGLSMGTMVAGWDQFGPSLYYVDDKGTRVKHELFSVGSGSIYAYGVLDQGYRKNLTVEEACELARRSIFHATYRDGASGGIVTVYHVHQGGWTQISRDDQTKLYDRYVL
Assay: Trypanosoma cruzi proteasome chymotrypsin-like activity (TcProtChymo) assay. Also: in the data most compounds retested in dose-response had high values.
Assay type: functional
Design: scale not given: direction of the effect not stated beside the values
Details: 9.37 µM
VALUE_TYPE: Percent Effect (%)

>  <COMPOUND>
Cn1ncc2c1C(COCC1CC1)CN(Cc1ccoc1)C2 (configuration not stated)

>  <MEASURE_UNIT>
%

>  <READING>
23.8

$$$$
>  <COMPOUND>
Cc1cncc(C(=O)N2CCCC(C(=O)CCc3ccccc3)C2)c1 (configuration not stated)

>  <MEASURE_UNIT>
%

>  <READING>
19.2

$$$$
>  <COMPOUND>
COc1ccc(-c2nnc(SC(C)C(=O)NCC(C)C)[nH]2)c(OC)c1 (configuration not stated)

>  <MEASURE_UNIT>
%

>  <READING>
13.5

$$$$
>  <COMPOUND>
CN(C)C(=O)[C@@H]1CCO[C@@H]2CCN(CCc3ccccc3)C[C@@H]21

>  <MEASURE_UNIT>
%

>  <READING>
9.21

$$$$
>  <COMPOUND>
COc1ccc(-c2cc(C3CCCCCN3S(=O)(=O)N(C)C)on2)cc1 (configuration not stated)

>  <MEASURE_UNIT>
%

>  <READING>
14.3

$$$$
>  <COMPOUND>
O=C(NCC1CCS(=O)(=O)C1)c1sccc1-c1ccc(F)cc1 (configuration not stated)

>  <MEASURE_UNIT>
%

>  <READING>
13.3

$$$$
>  <COMPOUND>
O=C(c1cnccn1)N1CCc2ncnc(-c3cccnc3)c2CC1

>  <MEASURE_UNIT>
%

>  <READING>
6.33

$$$$

###

Target: Proteasome subunit beta (Trypanosoma cruzi)
Sequence (whole entry): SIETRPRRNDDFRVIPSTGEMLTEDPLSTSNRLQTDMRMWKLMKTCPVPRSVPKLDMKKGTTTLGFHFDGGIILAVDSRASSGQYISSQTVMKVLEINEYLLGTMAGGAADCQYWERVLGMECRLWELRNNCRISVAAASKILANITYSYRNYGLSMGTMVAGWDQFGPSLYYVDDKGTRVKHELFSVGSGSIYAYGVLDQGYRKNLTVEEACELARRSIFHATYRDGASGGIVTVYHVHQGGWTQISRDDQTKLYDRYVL
Assay: Trypanosoma cruzi proteasome chymotrypsin-like activity (TcProtChymo) assay. Also: in the data most compounds retested in dose-response had high values.
Assay type: functional
Design: scale not given: direction of the effect not stated beside the values
Details: 9.37 µM
VALUE_TYPE: Percent Effect (%)

>  <MOLECULE>
CC(C)CN1CCC(C(=O)Nc2cc(C(F)(F)F)c[nH]c2=O)CC1

>  <VALUE_TYPE>
Percent Effect

>  <MEASURE_UNIT>
%

>  <READING>
1.18

$$$$
>  <MOLECULE>
O=C(CCNS(=O)(=O)c1ccccc1)NCc1ccoc1

>  <VALUE_TYPE>
Percent Effect

>  <MEASURE_UNIT>
%

>  <READING>
12

$$$$
>  <MOLECULE>
CN(Cc1ccc(Cl)s1)C(=O)NCc1nnc2n1CCC2

>  <VALUE_TYPE>
Percent Effect

>  <MEASURE_UNIT>
%

>  <READING>
7.87

$$$$
>  <MOLECULE>
Cc1nn(C)c2c(N3CCN(C(=O)c4ccccc4)CC3)ncnc12

>  <VALUE_TYPE>
Percent Effect

>  <MEASURE_UNIT>
%

>  <READING>
12

$$$$
>  <MOLECULE>
Cc1ccc(C(=O)N(C)Cc2cc(Br)cs2)c(=O)[nH]1

>  <VALUE_TYPE>
Percent Effect

>  <MEASURE_UNIT>
%

>  <READING>
23.3

$$$$
>  <MOLECULE>
O=C(Nc1cc(C(F)(F)F)c[nH]c1=O)N1CCCSCC1

>  <VALUE_TYPE>
Percent Effect

>  <MEASURE_UNIT>
%

>  <READING>
6.08

$$$$
>  <MOLECULE>
Cc1ccc(C2CSCCN2C(=O)c2ccc(C(N)=O)cc2)o1 (configuration not stated)

>  <VALUE_TYPE>
Percent Effect

>  <MEASURE_UNIT>
%

>  <READING>
10

$$$$
>  <MOLECULE>
Cc1ccc(C(=O)NS(=O)(=O)c2ccccc2C)c(=O)[nH]1

>  <VALUE_TYPE>
Percent Effect

>  <MEASURE_UNIT>
%

>  <READING>
4.85

$$$$
>  <MOLECULE>
O=C(NCCN1CCNCC1)c1c(O)c2ccccc2[nH]c1=O

>  <VALUE_TYPE>
Percent Effect

>  <MEASURE_UNIT>
%

>  <READING>
20.1

$$$$
>  <MOLECULE>
CN1CCOC(CNCc2cccc(OCC(F)(F)F)c2)C1 (configuration not stated)

>  <VALUE_TYPE>
Percent Effect

>  <MEASURE_UNIT>
%

>  <READING>
-6.31

$$$$
>  <MOLECULE>
CC1CCN(C(=O)c2ccn(COc3ccc(F)cc3)n2)CC1

>  <VALUE_TYPE>
Percent Effect

>  <MEASURE_UNIT>
%

>  <READING>
25

$$$$
>  <MOLECULE>
O=C(NCCN1CCCCCC1=O)c1ccn(-c2ccc(F)cc2)n1

>  <VALUE_TYPE>
Percent Effect

>  <MEASURE_UNIT>
%

>  <READING>
15.5

$$$$

###

Molecular target: Sialic acid-binding Ig-like lectin 9 (Homo sapiens)
Assay: Hs-Siglec9 ALPHAscreen SOP 20170721
Set-up: scale not given: direction of the effect not stated beside the values
Conditions: 10 µM
Quick list: Percent Effect per entry.

>  <MOLECULE>
c1ccc(C[C@H]2[C@H](N3CCOCC3)CCN2Cc2cccnc2)cc1

>  <Percent Effect, %>
7.7

$$$$
>  <MOLECULE>
O=C(NCc1ccc(-n2cncn2)nc1)c1ccc2c(c1)CCO2

>  <Percent Effect, %>
1.05

$$$$
>  <MOLECULE>
COc1ccc(-c2noc(CN3CCc4cncnc4C3)n2)cc1

>  <Percent Effect, %>
2.94

$$$$
>  <MOLECULE>
CCOCCC(=O)N1CCCC(c2ncc[nH]2)C1 (stereo not drawn)

>  <Percent Effect, %>
-2.18

$$$$
>  <MOLECULE>
O=C(c1cc(Cl)c2c(c1)OCO2)N1CCN(c2ccccn2)CC1

>  <Percent Effect, %>
5.68

$$$$
>  <MOLECULE>
O=C(CCNC(=O)c1ccccc1N1CCOCC1)NC1CCCC1

>  <Percent Effect, %>
6.63

$$$$
>  <MOLECULE>
COc1cc(C)c(C(C)NC(=O)Nc2nnc(C)s2)cc1OC (stereo not drawn)

>  <Percent Effect, %>
14.6

$$$$
>  <MOLECULE>
Cc1cnn(C2CCCN(C(=O)c3cc(C)sc3C)C2)c1 (stereo not drawn)

>  <Percent Effect, %>
-9.37

$$$$
>  <MOLECULE>
CCN1CC(C(=O)N2CCC(Oc3ccccc3Cl)CC2)CC1=O (stereo not drawn)

>  <Percent Effect, %>
-1.45

$$$$
>  <MOLECULE>
CCCn1[nH]cc/c1=N\C(=O)CN1CCc2c(nc(C(C)C)n2C)C1

>  <Percent Effect, %>
-15.6

$$$$
>  <MOLECULE>
O=S(=O)(c1ccccc1)N1CCN(CCn2ccnc2)CC1

>  <Percent Effect, %>
-6.85

$$$$
>  <MOLECULE>
CCCc1n[nH]c(C2CN(C(=O)C3=COCCC3)CCO2)n1 (stereo not drawn)

>  <Percent Effect, %>
5.25

$$$$
>  <MOLECULE>
O=C1CC[C@H]2[C@H](CCN2C(=O)C2CCOCC2)N1Cc1ccncc1

>  <Percent Effect, %>
0.426

$$$$
>  <MOLECULE>
Cc1cc(N2CCN(CC(=O)N(C)C)CC2)nc(-c2ccncc2)n1

>  <Percent Effect, %>
-5.92

$$$$
>  <MOLECULE>
Cc1cnn(CC2CCCCN2C(=O)c2ccc3[nH]nnc3c2)c1 (stereo not drawn)

>  <Percent Effect, %>
1.47

$$$$
>  <MOLECULE>
CC(C)(NCC(=O)NCCC#N)c1ccc2c(c1)OCCO2

>  <Percent Effect, %>
1.26

$$$$
>  <MOLECULE>
O=C1CC(NCc2ccncc2)CN1Cc1cccc(F)c1 (stereo not drawn)

>  <Percent Effect, %>
0.392

$$$$
>  <MOLECULE>
CC(C)Cc1noc(CN2CCN(C(=O)c3cccc(F)c3)CC2)n1

>  <Percent Effect, %>
5.59

$$$$
>  <MOLECULE>
CC(C)c1n[nH]c(C(=O)Nc2cc[nH]n2)c1Br

>  <Percent Effect, %>
3.44

$$$$
>  <MOLECULE>
CCc1c(C(=O)N2CCCN(C(C)=O)CC2)cnn1C(C)(C)C

>  <Percent Effect, %>
9.75

$$$$
>  <MOLECULE>
Cc1oncc1C(=O)N1CCC2(CCN(Cc3ccccn3)C2=O)C1 (stereo not drawn)

>  <Percent Effect, %>
4.81

$$$$
>  <MOLECULE>
Cn1cccc1CN1CCC2(CCCN(C(=O)c3cnccn3)C2)C1 (stereo not drawn)

>  <Percent Effect, %>
-13.7

$$$$
>  <MOLECULE>
CCOCCn1c(=O)[nH]c2cc(C(=O)N(C)CCc3cn[nH]c3)ccc21

>  <Percent Effect, %>
14.1

$$$$
>  <MOLECULE>
CC(=O)NCC(=O)N1CCC2(CC1)CN(c1cccnc1)C(=O)CO2

>  <Percent Effect, %>
-10.1

$$$$
>  <MOLECULE>
O=C(Cc1cccc(F)c1)NCCNCc1ccc2c(c1)CCO2

>  <Percent Effect, %>
17.2

$$$$
>  <MOLECULE>
O=S(=O)(CCNCc1cccc2c1OCCO2)N1CCOCC1

>  <Percent Effect, %>
1

$$$$
>  <MOLECULE>
CCC1(CC)Cc2ccccc2-c2nc(CN(C)C)nc(O)c21

>  <Percent Effect, %>
4.55

$$$$
>  <MOLECULE>
Cc1ccc(NC2CCN(C(=O)Cc3cccc(F)c3)CC2)nn1

>  <Percent Effect, %>
7.97

$$$$
>  <MOLECULE>
Cc1ccoc1C(=O)N1CCO[C@H]2[C@H](OCC3CCOCC3)CC[C@@H]21

>  <Percent Effect, %>
2.92

$$$$
>  <MOLECULE>
Cn1cc(CN2C[C@@H]3COC[C@]3(C(=O)NCc3ccccn3)C2)cn1

>  <Percent Effect, %>
6.2

$$$$
>  <MOLECULE>
COC(=O)c1cc(OCC2CCC2)cc(C(=O)N[C@@H]2CNCC[C@H]2O)c1

>  <Percent Effect, %>
10.2

$$$$
>  <MOLECULE>
O=C1N(c2ccccc2)Cc2nc(=O)[nH]n21

>  <Percent Effect, %>
1.33

$$$$
>  <MOLECULE>
Cc1cnn(CC2CCCCN2Cc2nc(-c3ccoc3)no2)c1 (stereo not drawn)

>  <Percent Effect, %>
4.87

$$$$
>  <MOLECULE>
Cn1cc(S(=O)(=O)N2CCCC2CC(=O)c2cccs2)cn1 (stereo not drawn)

>  <Percent Effect, %>
-5.21

$$$$
>  <MOLECULE>
c1ccc(C[C@H]2CN(Cc3nccs3)CC[C@H]2OCC2CC2)cc1

>  <Percent Effect, %>
3.38

$$$$
>  <MOLECULE>
Cc1nc(CCNC(=O)NC2CCN(c3ncccn3)CC2)cs1

>  <Percent Effect, %>
4.09

$$$$
>  <MOLECULE>
N#Cc1ccnc(N2CCN(Cc3cccc(F)c3)CC2)c1

>  <Percent Effect, %>
19.9

$$$$
>  <MOLECULE>
Cc1csc(NC(=O)CN(C)CC2CCCN2c2cccnn2)n1 (stereo not drawn)

>  <Percent Effect, %>
2.96

$$$$
>  <MOLECULE>
Cn1c2c(ccc1=O)CC(NS(C)(=O)=O)CC2 (stereo not drawn)

>  <Percent Effect, %>
-7.17

$$$$
>  <MOLECULE>
CN(Cc1ccsc1)C(=O)CS(=O)(=O)Cc1ccc(Cl)c(Cl)c1

>  <Percent Effect, %>
-5.21

$$$$
>  <MOLECULE>
Cc1cnn(CC2CN(CC(=O)Nc3sccc3C#N)CCO2)c1 (stereo not drawn)

>  <Percent Effect, %>
13

$$$$
>  <MOLECULE>
CN(Cc1ccc(OC(F)F)cc1)C(=O)CS(=O)(=O)c1ccc(Cl)cc1

>  <Percent Effect, %>
6.3

$$$$
>  <MOLECULE>
CCn1cc2c(n1)CN(CC1CC1)CC2COCC1CC1 (stereo not drawn)

>  <Percent Effect, %>
-3.73

$$$$
